minimum inhibitory concentration (MIC) values, listed per item
System: ESCHERICHA COLI SS
experimental_details: In vitro antibacterial activity (agar dilution MIC)
Assay type: cell-based
condition_notes: BHI agar, 35-37° C., 20 to 24 hours
measurement_kind: minimum inhibitory concentration (MIC)

{"compound": "CC[C@H]1OC(=O)[C@H](C)C(=O)[C@H](C)[C@@H](O[C@@H]2O[C@H](C)C[C@H](N(C)C)[C@H]2O)[C@](C)(OC)C[C@@H](C)C2=Nc3cc(C)ccc3N3C(=O)O[C@@]1(C)[C@H]3[C@H]2C", "assay_result": 0.2}
{"compound": "CC[C@H]1OC(=O)[C@H](C)C(=O)[C@H](C)[C@@H](O[C@@H]2O[C@H](C)C[C@H](N(C)C)[C@H]2O)[C@](C)(OC)C[C@@H](C)C2Nc3ccccc3N3C(=O)O[C@@]1(C)[C@H]3[C@H]2C (single isomer, unassigned)", "assay_result": 100}
{"compound": "CC[C@H]1OC(=O)[C@H](C)C(=O)[C@H](C)[C@@H](O[C@@H]2O[C@H](C)C[C@H](N(C)C)[C@H]2O)[C@](C)(OC)C[C@@H](C)C2=Nc3ccccc3N3C(=O)O[C@@]1(C)[C@H]3[C@H]2C", "assay_result": 1.56}
{"compound": "C=CCO[C@]1(C)C[C@@H](C)C2=Nc3ccccc3N3C(=O)O[C@](C)([C@@H](CC)OC(=O)[C@H](C)C(=O)[C@H](C)[C@H]1O[C@@H]1O[C@H](C)C[C@H](N(C)C)[C@H]1O)[C@H]3[C@H]2C", "assay_result": 12.5}
{"compound": "CC[C@H]1OC(=O)[C@H](C)C(=O)[C@H](C)[C@@H](O[C@@H]2O[C@H](C)C[C@H](N(C)C)[C@H]2O)[C@](C)(OC)C[C@@H](C)C2=Nc3cccnc3N3C(=O)O[C@@]1(C)[C@H]3[C@H]2C", "assay_result": 0.78}
{"compound": "CC[C@H]1OC(=O)[C@H](C)C(=O)[C@H](C)[C@@H](O[C@@H]2O[C@H](C)C[C@H](N(C)C)[C@H]2O)[C@](C)(OC)C[C@@H](C)C2=Nc3cc(C#N)ccc3N3C(=O)O[C@@]1(C)[C@H]3[C@H]2C", "assay_result": 3.1}
{"compound": "CC[C@H]1OC(=O)[C@H](C)C(=O)[C@H](C)[C@@H](O[C@@H]2O[C@H](C)C[C@H](N(C)C)[C@H]2O)[C@](C)(OC)C[C@@H](C)C2=Nc3cc(OC)ccc3N3C(=O)O[C@@]1(C)[C@H]3[C@H]2C", "assay_result": 50}
